experiment: qHTS for inhibitors of Vif-A3G interactions: Cherry picks; details: HeLa A3G-eYFP + Vif, 24 h; eYFP fluorescence increase; series mostly up to 36.9 µM; further: nearly all actives have a fitted effect of over 80% in size; further: potency means the concentration at half of the fitted maximal effect
Among all 2,100 compounds or so, about 650 (31%) were called active. Inconclusive results (about 16%) are left out. The list shows a part of the results.
experimentalEndpoint: Potency

Here are 10 molecules together with their reported answers.
INSERT INTO assay_data (molecule, experimentalendpoint, endpointresult) VALUES
  ('Cc1cccc2cc(C#N)c(SCC(=O)N3CC(=O)Nc4ccccc43)nc12', 'Potency', '17.7 µM (active)'),
  ('COc1cc(OC)cc(C(=O)N2CC(=O)Nc3ccccc32)c1', 'Potency', 'inactive'),
  ('O=C1c2cccc3c(N4CCCCC4)ccc(c23)C(=O)N1c1ccccc1O', 'Potency', '1.3 µM (active)'),
  ('COc1cc(C(=O)N2CC(=O)Nc3ccccc32)cc(OC)c1OC', 'Potency', 'inactive'),
  ('COc1ccc2nc(SCC(=O)N3CC(=O)Nc4ccccc43)c(C#N)cc2c1', 'Potency', '23.1 µM (active)'),
  ('Cc1cc(C)cc(C(=O)N2CC(=O)Nc3ccccc32)c1', 'Potency', 'inactive'),
  ('C=CCN1C(=O)c2cccc3c(N4CCCCC4)ccc(c23)C1=O', 'Potency', '20.6 µM (active)'),
  ('Cc1cc(C)c2nc(SCC(=O)N3CC(=O)Nc4ccccc43)c(C#N)cc2c1', 'Potency', '12.5 µM (active)'),
  ('O=C(NC(=S)Nc1ccccc1N1CCCCC1)c1ccccc1', 'Potency', 'inactive'),
  ('CCC(C)[C@H](NC(=O)N1CC(=O)Nc2ccccc21)C(=O)Nc1ccccc1C (stereo partly specified)', 'Potency', 'inactive');

### Prompt Query (molecule): O=C1c2cccc3c(N4CCCCC4)ccc(c23)C(=O)N1c1cccc(O)c1 ; field requested: Potency
### Response inactive

###

assay: qHTS for inhibitors of Vif-A3G interactions: Cherry picks; conditions: HeLa A3G-eYFP + Vif (tagged APOBEC3G with the HIV-1 protein that degrades it), 24 h; eYFP fluorescence increase; series mostly up to 36.9 µM; further: nearly all actives have a fitted effect of over 80% in size; further: potency means the concentration at half of the fitted maximal effect
Out of some 2,100 compounds screened, about 650 (31%) were called active. Roughly 16% stayed inconclusive and do not appear here. This is one part of the list.
experimentalEndpoint: Potency

Here are 4 compounds together with their reported answers.
INSERT INTO assay_data (compound, endpointresult) VALUES
  ('Cc1ccc2nc(/C(C#N)=C/c3ccc(-c4ccccc4C(=O)O)o3)[nH]c2c1', '3.26 µM (active)'),
  ('O=c1c2ccccc2nc(/C=C/c2ccc([N+](=O)[O-])o2)n1CCCO', '18.4 µM (active)'),
  ('N#C/C(=C\c1ccc(-c2ccc(F)cc2F)o1)c1nc2ccccc2[nH]1', '20.6 µM (active)'),
  ('C(=C\c1ccco1)/C1=NN(c2ccccc2)C(c2ccco2)C1 (configuration not stated)', '23.1 µM (active)');

### Prompt Query (compound): COc1ccc(Cl)cc1NC(=O)CN(C)CC(=O)Nc1ccccc1N1CCOCC1 ; field requested: Potency
### Response inactive

### Prompt Try this compound too: COc1ccc(OC)c(NC(=O)Cn2cnc3onc(-c4ccc(Cl)cc4)c3c2=O)c1
### Response inactive

### Prompt Try this compound too: O=C(COC(=O)c1ccc(NS(=O)(=O)c2cccs2)cc1)NCc1ccco1
### Response inactive

### Prompt Try this compound too: COC(=O)COc1cccc2c(=O)n(CC(=O)NCc3ccccc3)ccc12
### Response inactive

### Prompt Try this compound too: CN(C)c1ccc(/C=C/c2ccnc3ccccc23)c(N)c1
### Response 18.4 µM (active)

### Prompt Try this compound too: O=C(/C=C/c1ccco1)N1CCc2ccccc21
### Response inactive

### Prompt Try this compound too: CCn1c(/C=C/c2ccc([N+](=O)[O-])o2)nc2ccccc2c1=O
### Response 11.6 µM (active)

### Prompt Try this compound too: CCOC(=O)c1[nH]c(C)c(C(=O)Nc2cc(OC)ccc2OC)c1C
### Response inactive

### Prompt Try this compound too: CN(C)c1ccc(/C=C/c2ccnc3ccccc23)cc1N
### Response inactive

### Prompt Try this compound too: O=[N+]([O-])c1ccc(C2=NN(c3ccccc3)C(c3ccco3)C2)cc1 (configuration not stated)
### Response 1.25 µM (active)

### Prompt Try this compound too: C/C(=N\Nc1nc(C)cc(-c2ccccc2)n1)c1ccc(F)cc1
### Response inactive

### Prompt Try this compound too: Cn1c(/C=C/c2ccc([N+](=O)[O-])o2)nc2ccccc2c1=O
### Response 18.4 µM (active)

### Prompt Try this compound too: CNc1ccc(/C=C/c2ccnc3ccccc23)cc1
### Response 18.4 µM (active)

### Prompt Try this compound too: Cc1ccc2nc(/C(C#N)=C/c3ccc(-c4cccc(Cl)c4)o3)[nH]c2c1
### Response 6.51 µM (active)
